src = patent US20250090663A1

- Assay Target: T1, IL13RA2 Protein, Human, Recombinant (ECD)-His tag (human, UniProt Q14627 27-343)
- T1 construct: extracellular domain; also called human recombinant protein extracellular domain; human IL13Ra2-His6
- T1 sequence: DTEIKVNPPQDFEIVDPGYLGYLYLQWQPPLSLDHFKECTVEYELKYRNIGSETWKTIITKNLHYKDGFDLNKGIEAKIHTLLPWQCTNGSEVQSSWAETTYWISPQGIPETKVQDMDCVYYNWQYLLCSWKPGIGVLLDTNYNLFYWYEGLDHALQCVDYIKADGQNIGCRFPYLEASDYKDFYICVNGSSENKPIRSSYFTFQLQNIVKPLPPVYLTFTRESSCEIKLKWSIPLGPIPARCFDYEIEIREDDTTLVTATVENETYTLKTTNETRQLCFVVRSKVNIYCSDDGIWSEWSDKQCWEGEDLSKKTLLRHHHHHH
- Procedure Text: BLI; biotinylated VHH captured on streptavidin biosensor, antigen 1 uM in solution
Quick rule: Binding Response of at least 0.9 nm means Yes, below that means No.

VH36f1 (VHH, biotinylated (site not stated), Expressed in E. coli and 6xHIS purified; also called VH36f1 Biotin; Anti-IL13Rα2 VH36) VHH: QVQLQESGGGSVQPGGSLRLSCAASGINISSDVMEWFRQGPGEQRELVAHITTNSRTEYADFVKGRFTISRANAKNTLYLQMNGLKPEDTALYYCALRRGGRILWGQGTQVTVSS    No
IL13Ra2_2TIG4_f3 (VHH, biotinylated (site not stated), Expressed in E. coli and 6xHIS purified; also called IL13Ra2_2TIG4_f3-Biotin) VHH: QVQLQESGGGLVQPGGSLRLSCAASGRTYGMGWFRQAPGKEREFVAVGVWSSGNTYYADFARGRFTISRDNAKNTVYLQMDSLKPEDTAVYYCAAPRYSSYTTYHAAYDYWGPGTQVTVSS    No
VH52f3 (VHH, biotinylated (site not stated), Expressed in E. coli and 6xHIS purified; also called VH52f3 Biotin; Anti-IL13Rα2 VH52) VHH: QVQLQESGGGLVQPGGSLRLSCEVSGSIFSINRMAWYRQVPEKEREMVAQITYGDTIKYYGSAKGRFTISRDSAKNAVYLQMNSLKPEDTAVYRCNIVGVLTTGHYEDSFWGQGTQVTVPS    No
VH57f5 (VHH, biotinylated (site not stated), Expressed in E. coli and 6xHIS purified; also called VH57f5 Biotin; Anti-IL13Rα2 VH57) VHH: QVQLQESGGGLVQPGGSLRLSCAASGSIFNTNGMGWYRQAPGKQRERVAGISSGGNTVYAASVEGRFTISRDNAKNTGYLQMNNLKPEDTAVYYCRVAGRQDDYWGQGTQVTVSS    Yes
VH53f3 (VHH, biotinylated (site not stated), Expressed in E. coli and 6xHIS purified; also called VH53f3 Biotin; Anti-IL13Rα2 VH53) VHH: QVQLQESGGGLVQPGGSLRLSCEVSGSISSINRMAWYRQVPGKEREMVAQITYGDTIKYYGSAKGRFTISKDSAKNAVYLQMNSLKPEDTAVYRCNIVGVLTTGHYENSFWGQGTQVTVSS    Yes
